- System: ACHN renal
- method: NCI-60 one-dose screen, 48 h (100 = growth as untreated, 0 = no growth, -100 = all killed)
- test settings: 10 µM unless noted
This is part of a sample that, as a whole, favours compounds with a hit. Of some 83,000 tested, about 20% had one in any assay.
// returns Not satisfied unless growth is strictly below 90%, in which case Satisfied

[[record]]
compound = "CC(C)(C)n1nnnc1C(Nc1cccc2c1OCO2)c1cc2cccc3ccc4cccc1c4c32 (centres undefined)"
experimental_target = "ACHN renal"
qualitative_label = "Satisfied"


Could you now consider this next compound?
In: Given the entry O=c1c2ccccc2nc(COc2ccccc2)n1NS(=O)(=O)c1ccc(Cl)cc1 , would its reported growth be below 90%?
Out: Not satisfied

Attribution: PubChem BioAssay (NCI)
